Molecular target: T1, human IFN-ω (human, UniProt P05000 24-195)
T1 construct: also called interferon omega
Assay: ProteOn, one antigen concentration
OUTCOME MEASURE: pKd
One number for each entry, as −log10 of the molar value.

Working through the 2 binders below one at a time, give pKd for each.
1. IFWM3357 (antibody, V domains shown, VH IFWH624, VL IFWL1038; converted mAb; also called IFWB3092) VH: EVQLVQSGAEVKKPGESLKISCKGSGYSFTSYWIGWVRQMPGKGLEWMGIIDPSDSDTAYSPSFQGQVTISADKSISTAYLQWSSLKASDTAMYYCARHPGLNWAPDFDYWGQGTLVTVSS VL: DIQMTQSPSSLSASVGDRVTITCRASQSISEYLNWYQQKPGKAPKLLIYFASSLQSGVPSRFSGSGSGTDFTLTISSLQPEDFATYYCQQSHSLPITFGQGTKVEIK
2. IFWM3337 (antibody, V domains shown, VH IFWH591, VL IFWL1087; converted mAb; also called IFWB3072) VH: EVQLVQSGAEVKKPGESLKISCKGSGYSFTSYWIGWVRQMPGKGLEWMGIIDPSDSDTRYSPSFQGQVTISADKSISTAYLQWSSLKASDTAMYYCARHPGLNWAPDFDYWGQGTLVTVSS VL: DIQMTQSPSSLSASVGDRVTITCRASQSISNSNLNWYQQKPGKAPKLLIHWASSLQSGVPSRFSGSGSGTDFTLTISSLQPEDFATYYCQQWYDHPLTFGQGTKVEIK

[11.40, 10.70]

Here are 3 binders. What values of pKd were reported for them?
1. IFWM3331 (antibody, V domains shown, VH IFWH591, VL IFWL1073; converted mAb; also called IFWB3066) VH: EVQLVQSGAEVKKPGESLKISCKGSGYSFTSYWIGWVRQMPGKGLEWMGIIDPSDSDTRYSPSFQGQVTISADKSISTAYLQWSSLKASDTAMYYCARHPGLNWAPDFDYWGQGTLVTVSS VL: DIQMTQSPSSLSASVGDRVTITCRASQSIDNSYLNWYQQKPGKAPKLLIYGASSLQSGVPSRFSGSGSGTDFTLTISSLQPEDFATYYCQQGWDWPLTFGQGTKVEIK
2. IFWM3320 (antibody, V domains shown, VH IFWH591, VL IFWL1047; converted mAb; also called IFWB3055) VH: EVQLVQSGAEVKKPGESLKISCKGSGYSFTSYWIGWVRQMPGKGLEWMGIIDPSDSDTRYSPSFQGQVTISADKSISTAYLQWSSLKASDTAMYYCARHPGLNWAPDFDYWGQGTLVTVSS VL: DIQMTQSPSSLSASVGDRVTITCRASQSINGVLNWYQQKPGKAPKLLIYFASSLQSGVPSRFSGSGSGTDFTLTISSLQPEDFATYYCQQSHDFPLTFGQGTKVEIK
3. IFWM3343 (antibody, V domains shown, VH IFWH624, VL IFWL997; converted mAb; also called IFWB3078) VH: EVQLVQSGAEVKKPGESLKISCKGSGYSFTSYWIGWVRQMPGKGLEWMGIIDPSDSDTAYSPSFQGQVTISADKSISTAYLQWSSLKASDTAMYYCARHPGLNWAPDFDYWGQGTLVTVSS VL: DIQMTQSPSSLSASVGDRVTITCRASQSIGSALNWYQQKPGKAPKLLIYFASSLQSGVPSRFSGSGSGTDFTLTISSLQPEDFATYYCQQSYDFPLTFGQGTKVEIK

1: 10.82; 2: 10.68; 3: 10.70
